molecular target: Furin (Homo sapiens); test: Inhibition of recombinant soluble human furin using pyroGlu-Arg-Thr-Lys-Arg-methyl-coumaryl-7-amide as substrate measured after 1 hr
Sequence (P09958 whole entry): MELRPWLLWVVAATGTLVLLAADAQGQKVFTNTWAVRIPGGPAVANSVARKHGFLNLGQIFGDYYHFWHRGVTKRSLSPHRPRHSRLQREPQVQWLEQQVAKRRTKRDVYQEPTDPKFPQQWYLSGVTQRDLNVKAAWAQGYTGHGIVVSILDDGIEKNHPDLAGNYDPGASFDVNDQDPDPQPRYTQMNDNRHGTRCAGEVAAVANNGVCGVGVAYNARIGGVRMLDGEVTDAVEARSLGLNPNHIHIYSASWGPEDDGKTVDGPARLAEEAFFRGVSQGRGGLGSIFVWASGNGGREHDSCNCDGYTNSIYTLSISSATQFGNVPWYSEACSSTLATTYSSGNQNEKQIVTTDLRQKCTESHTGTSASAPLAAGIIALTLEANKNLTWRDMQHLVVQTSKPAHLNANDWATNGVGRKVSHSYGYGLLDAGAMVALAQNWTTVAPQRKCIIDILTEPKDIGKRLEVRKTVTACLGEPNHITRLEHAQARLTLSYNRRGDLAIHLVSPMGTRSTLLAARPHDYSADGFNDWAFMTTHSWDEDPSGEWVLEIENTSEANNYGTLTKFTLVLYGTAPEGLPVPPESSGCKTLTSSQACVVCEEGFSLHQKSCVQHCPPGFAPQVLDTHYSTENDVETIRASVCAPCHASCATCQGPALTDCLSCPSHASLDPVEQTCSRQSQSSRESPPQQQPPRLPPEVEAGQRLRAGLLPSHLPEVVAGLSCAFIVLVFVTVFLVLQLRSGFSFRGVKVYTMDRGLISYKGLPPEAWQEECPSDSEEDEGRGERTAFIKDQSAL
Where a SMILES comes first, the peptide text is derived from it. [ ]: non-standard residue; d: D form. Aib = CC(C)(N)C(=O)O
Attribute measured: Ki (µM)

>>> experimental_result("CC(=O)N[C@@H](CCCNC(=N)N)C(=O)N[C@@H](CCCNC(=N)N)C(=O)N[C@@H](CCCNC(=N)N)C(=O)N[C@@H](CCCNC(=N)N)C(=O)N[C@@H](CCCNC(=N)N)C(=O)N[C@@H](CCCCN)C(=O)N[C@@H](CCCCN)C(=O)N[C@@H](CCCNC(=N)N)C(=O)N[C@H](C(N)=O)[C@@H](C)O")
0.023
>>> experimental_result("CC(=O)N[C@@H](C)C(=O)N[C@H](C(=O)N[C@@H](CCCNC(=N)N)C(=O)N[C@@H](CCCNC(=N)N)C(=O)N[C@@H](CCCNC(=N)N)C(=O)N[C@@H](CCCCN)C(=O)N[C@@H](CCCCN)C(=O)N[C@@H](CCCNC(=N)N)C(=O)N[C@H](C(N)=O)[C@@H](C)O)C(C)C (Ac-AVRRRKKRT-NH2)")
0.01
>>> experimental_result("CC(=O)N[C@@H](CCCNC(=N)N)C(=O)N[C@@H](C)C(=O)N[C@@H](CCCNC(=N)N)C(=O)N[C@@H](Cc1ccc(O)cc1)C(=O)N[C@@H](CCCNC(=N)N)C(=O)N[C@@H](CCCCN)C(=O)N[C@@H](CCCCN)C(=O)N[C@@H](CCCNC(=N)N)C(=O)N[C@H](C(N)=O)[C@@H](C)O")
0.035
>>> experimental_result("CC(=O)N[C@@H](CCCNC(=N)N)C(=O)N[C@@H](C)C(=O)NCC(=O)N[C@@H](CCCNC(=N)N)C(=O)N[C@@H](CCCNC(=N)N)C(=O)N[C@@H](CCCCN)C(=O)N[C@@H](CCCCN)C(=O)N[C@@H](CCCNC(=N)N)C(=O)N[C@H](C(N)=O)[C@@H](C)O")
0.035
>>> experimental_result("CC(=O)N1CCC[C@@H]1C(=O)N[C@@H](C)C(=O)N[C@@H](CCCNC(=N)N)C(=O)N[C@@H](CCCNC(=N)N)C(=O)N[C@@H](CCCNC(=N)N)C(=O)N[C@@H](CCCCN)C(=O)N[C@@H](CCCCN)C(=O)N[C@@H](CCCNC(=N)N)C(=O)N[C@H](C(N)=O)[C@@H](C)O")
0.013
>>> experimental_result("CC(=O)N[C@@H](C)C(=O)N[C@@H](Cc1c[nH]c2ccccc12)C(=O)N[C@@H](CCCNC(=N)N)C(=O)N[C@@H](CCCNC(=N)N)C(=O)N[C@@H](CCCNC(=N)N)C(=O)N[C@@H](CCCCN)C(=O)N[C@@H](CCCCN)C(=O)N[C@@H](CCCNC(=N)N)C(=O)N[C@H](C(N)=O)[C@@H](C)O (Ac-AWRRRKKRT-NH2)")
0.03
>>> experimental_result("CC[C@H](NC(=O)[C@H](CCCNC(=N)N)NC(=O)[C@H](C)NC(=O)[C@H](CO)NC(C)=O)C(=O)N[C@@H](CCCNC(=N)N)C(=O)N[C@@H](CCCCN)C(=O)N[C@@H](CCCCN)C(=O)N[C@@H](CCCNC(=N)N)C(=O)N[C@H](C(N)=O)[C@@H](C)O")
0.011
>>> experimental_result("CC(=O)N[C@@H](CCCNC(=N)N)C(=O)N[C@@H](C)C(=O)N[C@@H](CCCNC(=N)N)C(=O)N[C@@H](C)C(=O)N[C@@H](CCCNC(=N)N)C(=O)N[C@@H](CCCCN)C(=O)N[C@@H](CCCCN)C(=O)N[C@@H](CCCNC(=N)N)C(=O)N[C@H](C(N)=O)[C@@H](C)O")
0.011
>>> experimental_result("CC[C@H](NC(=O)[C@H](CCCNC(=N)N)NC(=O)[C@H](C)NC(=O)[C@@H]1CCCN1C(C)=O)C(=O)N[C@@H](CCCNC(=N)N)C(=O)N[C@@H](CCCCN)C(=O)N[C@@H](CCCCN)C(=O)N[C@@H](CCCNC(=N)N)C(=O)N[C@H](C(N)=O)[C@@H](C)O")
0.01
>>> experimental_result("CC(=O)N[C@@H](CCCNC(=N)N)C(=O)N[C@@H](CC(C)C)C(=O)N[C@@H](CCCNC(=N)N)C(=O)N[C@@H](CCCNC(=N)N)C(=O)N[C@@H](CCCNC(=N)N)C(=O)N[C@@H](CCCCN)C(=O)N[C@@H](CCCCN)C(=O)N[C@@H](CCCNC(=N)N)C(=O)N[C@H](C(N)=O)[C@@H](C)O")
0.023
>>> experimental_result("CC(=O)N[C@@H](CCCNC(=N)N)C(=O)N[C@@H](CC(=O)O)C(=O)N[C@@H](CCCNC(=N)N)C(=O)N[C@@H](CCCNC(=N)N)C(=O)N[C@@H](CCCNC(=N)N)C(=O)N[C@@H](CCCCN)C(=O)N[C@@H](CCCCN)C(=O)N[C@@H](CCCNC(=N)N)C(=O)N[C@H](C(N)=O)[C@@H](C)O")
0.033
>>> experimental_result("CC[C@H](C)[C@H](NC(=O)[C@H](CCCNC(=N)N)NC(C)=O)C(=O)N[C@@H](CCCNC(=N)N)C(=O)N[C@@H](CCCNC(=N)N)C(=O)N[C@@H](CCCNC(=N)N)C(=O)N[C@@H](CCCCN)C(=O)N[C@@H](CCCCN)C(=O)N[C@@H](CCCNC(=N)N)C(=O)N[C@H](C(N)=O)[C@@H](C)O")
0.02
>>> experimental_result("CC[C@H](C)[C@H](NC(=O)[C@H](CCCNC(=N)N)NC(=O)[C@H](C)NC(=O)C(C)(C)NC(C)=O)C(=O)N[C@@H](CCCNC(=N)N)C(=O)N[C@@H](CCCCN)C(=O)N[C@@H](CCCCN)C(=O)N[C@@H](CCCNC(=N)N)C(=O)N[C@H](C(N)=O)[C@@H](C)O (Ac-[Aib]ARIRKKRT-NH2)")
0.013
>>> experimental_result("CC(=O)N[C@@H](CCCNC(=N)N)C(=O)N[C@H](C(=O)N[C@@H](CCCNC(=N)N)C(=O)N[C@@H](CCCNC(=N)N)C(=O)N[C@@H](CCCNC(=N)N)C(=O)N[C@@H](CCCCN)C(=O)N[C@@H](CCCCN)C(=O)N[C@@H](CCCNC(=N)N)C(=O)N[C@H](C(N)=O)[C@@H](C)O)C(C)C")
0.016
